Examples of molecules with documented half-life follow.
METHOD SUMMARY: Rat pK
CONDITION NOTES: in vivo, iv, read-out: Rat pK: T1/2 (iv)
Counter-ions that a name gives are not always drawn.
Reply numerically in min, unit not repeated.

Report half-life for CC(C)Cc1cc2c(NC3CCN(C(C)c4cccc(F)c4)CC3)ncnc2s1 (stereo not shown) [Example B14, dihydrochloride] please. 30

Repeat with "Cc1c(Cl)sc2ncnc(NC3CCN(Cc4cccc(F)c4)CC3)c12.O=C(O)/C=C\C(=O)O" 24

Continue with CC(C)Cc1cc2c(NC3CCN(C(C)c4cc(F)cc(F)c4)CC3)ncnc2s1 (stereo not shown) [Example B18, dihydrochloride] 12

# repeat for N#Cc1cccc(CN2CCC(Nc3ncnc4sc(Cl)cc34)CC2)c1 [Example B43, monomaleate] 44.4

---

METHOD SUMMARY: Mouse pK
CONDITION NOTES: in vivo, iv, read-out: Mouse pK: T1/2 (iv)
MEASURED ATTRIBUTE: half-life (min)
Unit min implied. Number only.

Look up half-life: N#Cc1cccc(CN2CCC(Nc3ncnc4sc(Cl)cc34)CC2)c1 [Example B43, monomaleate] 26

---

# % at 10 nM (5HT2B) per entry
SYSTEM NAME: 5HT2B (Homo sapiens)
METHOD SUMMARY: 5HT2B binding (Ki of Biological Data Table)
CONDITION NOTES: 10 nM
Counter-ions that a name gives are not always drawn.
Unit % implied. Number only.

So what's the measured % at 10 nM (5HT2B) for this one? Oc1cc(C(F)(F)F)cnc1N1CCC(Nc2ncnc3scc(-c4ccccc4)c23)CC1 [Example B7] 3

Okay, and c1ccc(CN2CCC(Nc3ncnc4scc(-c5ccccc5)c34)CC2)cc1 [Example B6] ? 38

Lookup N#Cc1cccc(CN2CCC(Nc3ncnc4sc5c(c34)CCCC5)CC2)c1 [Example B11, dihydrochloride] 82

What do we get for c1ccc(CN2CCC(Nc3ncnc4sccc34)CC2)cc1 [Example B8] ? 13

Now give it for CN1CCC(N(C)c2ncnc3sc4c(c23)CCCC4)CC1 [Example B5] too. -2

For Cc1csc2ncnc(NC3CCN(Cc4ccccc4)CC3)c12 [Example B9] then? 15

---

SYSTEM NAME: D2 (Homo sapiens, UniProt P14416)
Sequence (P14416 whole entry): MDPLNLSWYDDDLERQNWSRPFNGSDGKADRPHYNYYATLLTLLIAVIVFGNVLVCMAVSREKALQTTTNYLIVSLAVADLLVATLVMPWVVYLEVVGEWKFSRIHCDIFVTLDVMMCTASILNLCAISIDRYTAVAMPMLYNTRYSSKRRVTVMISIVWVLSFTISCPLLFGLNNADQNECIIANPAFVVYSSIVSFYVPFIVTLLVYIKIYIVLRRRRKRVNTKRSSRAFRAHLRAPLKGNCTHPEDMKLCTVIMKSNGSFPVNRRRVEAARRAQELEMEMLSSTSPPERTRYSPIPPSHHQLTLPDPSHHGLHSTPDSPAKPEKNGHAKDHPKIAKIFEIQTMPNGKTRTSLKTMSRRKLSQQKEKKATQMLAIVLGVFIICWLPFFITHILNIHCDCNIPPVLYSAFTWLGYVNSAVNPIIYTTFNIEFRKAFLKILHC
METHOD SUMMARY: Functional activity D2 (agonist / antagonist)
CONDITION NOTES: agonist
MEASURED ATTRIBUTE: EC50 (nM)
The answer is to be given in nM; state only the numeric part.

Bench note: what EC50 did N#Cc1cccc(CN2CCC(Nc3ncnc4sc(Cl)cc34)CC2)c1 [Example B43, monomaleate] show? 920

---

SYSTEM NAME: D2S (Homo sapiens)
Sequence (P14416 1-414 isoform P14416-2): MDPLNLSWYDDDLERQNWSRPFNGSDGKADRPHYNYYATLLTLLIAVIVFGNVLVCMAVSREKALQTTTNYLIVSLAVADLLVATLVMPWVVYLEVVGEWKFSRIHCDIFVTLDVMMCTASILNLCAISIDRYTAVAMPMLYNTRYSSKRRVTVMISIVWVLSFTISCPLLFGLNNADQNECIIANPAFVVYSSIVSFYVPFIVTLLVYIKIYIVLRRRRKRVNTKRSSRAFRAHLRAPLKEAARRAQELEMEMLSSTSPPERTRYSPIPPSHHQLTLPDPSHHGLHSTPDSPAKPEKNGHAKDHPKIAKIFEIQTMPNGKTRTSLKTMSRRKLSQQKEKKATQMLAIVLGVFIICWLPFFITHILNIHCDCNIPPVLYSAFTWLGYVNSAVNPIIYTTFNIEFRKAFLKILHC
METHOD SUMMARY: D2S binding (Ki)
CONDITION NOTES: NA: Not Active
Where a name gives a salt, the structure may show the parent alone.
Listed next: entries and their corresponding Ki.
Write the answer as a number in nM, unit excluded.

[
  {
    "COMPOUND": "N#Cc1cc(CN2CCC(Nc3ncnc4sc(Cl)cc34)CC2)ccc1F",
    "Ki (nM)": 670
  },
  {
    "COMPOUND": "Fc1cc(F)cc(CN2CCC(Nc3ncnc4sc(Cl)cc34)CC2)c1.O=C(O)/C=C\\C(=O)O",
    "Ki (nM)": 66
  }
]

Alright, here's another compound for you.
Would you mind telling me what Ki value was observed for CC(C)c1cc2c(NC3CCN(Cc4cc(F)cc(F)c4)CC3)ncnc2s1 [Example B31, dihydrochloride] ? 230

---

Entries and their measured half-life follow.
METHOD SUMMARY: Rat pK
CONDITION NOTES: in vivo, iv, read-out: Rat pK: T1/2 (iv)
# unit: min | format: bare number

[
  {
    "MOLECULE": "N#Cc1cc(CN2CCC(Nc3ncnc4sc(Cl)cc34)CC2)ccc1F [Example B50]",
    "half-life / min": 37.2
  },
  {
    "MOLECULE": "Fc1cccc(CN2CCC(Nc3ncnc4sc(Cl)cc34)CC2)c1.O=C(O)/C=C\\C(=O)O [Example B42]",
    "half-life / min": 24
  }
]

Next molecule, please.
Name the recorded half-life for Fc1cc(F)cc(CN2CCC(Nc3ncnc4sc(Cl)cc34)CC2)c1.O=C(O)/C=C\C(=O)O [Example B34] . 24

---

METHOD SUMMARY: HLM T1/2
CONDITION NOTES: human, liver microsomes
Counter-ions that a name gives are not always drawn.
half-life values for the molecules below.

Some molecules with recorded half-life:
[
  {
    "MOLECULE": "CC(C)(c1cccc(F)c1)N1CCC(Nc2ncnc3sc4c(c23)CCCC4)CC1 [Example B24, dihydrochloride]",
    "OBSERVED RESULT": "< 15 min"
  },
  {
    "MOLECULE": "COc1ccccc1CN1CCC(Nc2ncnc3sc(Cl)c(C)c23)CC1 [Example B40, dihydrochloride]",
    "OBSERVED RESULT": "< 15 min"
  },
  {
    "MOLECULE": "CC(C#N)(c1cccc(F)c1)N1CCC(Nc2ncnc3sc4c(c23)CCCC4)CC1 (centres unmarked) [Example B23, dihydrochloride]",
    "OBSERVED RESULT": "< 15 min"
  }
]

May I ask what half-life has been recorded for Fc1cccc(CN2CCC(Nc3ncnc4sc5c(c34)CCCC5)CC2)c1 [Example B3] ? 4.3 min

Please answer likewise for CC(C)Cc1cc2c(NC3CCN(C(C)c4c(F)cc(F)cc4F)CC3)ncnc2s1 (centres unmarked) [Example B19, dihydrochloride] < 15 min

Can you check Clc1cc2c(NC3CCN(Cc4cccnc4)CC3)ncnc2s1 [Example B47] next? 12 min

Subsequent entry: Cc1sc2ncnc(NC3CCN(CC4CCCCC4)CC3)c2c1C [Example B35, dihydrochloride] < 15 min

Quick one: FC(F)(F)c1cccc(CN2CCC(Nc3ncnc4sc(Cl)cc34)CC2)c1 [Example B54] 16 min

---

METHOD SUMMARY: Mouse pK
CONDITION NOTES: in vivo, ip, read-out: Mouse pK: % F
MEASURED ATTRIBUTE: bioavailability (%)
Write down the numeric answer in % and omit the unit.

For N#Cc1cccc(CN2CCC(Nc3ncnc4sc(Cl)cc34)CC2)c1 [Example B43, monomaleate] , what is its reported bioavailability? 87

---

SYSTEM NAME: 5HT2B (Homo sapiens, UniProt P41595)
Sequence (P41595 whole entry, species assumed): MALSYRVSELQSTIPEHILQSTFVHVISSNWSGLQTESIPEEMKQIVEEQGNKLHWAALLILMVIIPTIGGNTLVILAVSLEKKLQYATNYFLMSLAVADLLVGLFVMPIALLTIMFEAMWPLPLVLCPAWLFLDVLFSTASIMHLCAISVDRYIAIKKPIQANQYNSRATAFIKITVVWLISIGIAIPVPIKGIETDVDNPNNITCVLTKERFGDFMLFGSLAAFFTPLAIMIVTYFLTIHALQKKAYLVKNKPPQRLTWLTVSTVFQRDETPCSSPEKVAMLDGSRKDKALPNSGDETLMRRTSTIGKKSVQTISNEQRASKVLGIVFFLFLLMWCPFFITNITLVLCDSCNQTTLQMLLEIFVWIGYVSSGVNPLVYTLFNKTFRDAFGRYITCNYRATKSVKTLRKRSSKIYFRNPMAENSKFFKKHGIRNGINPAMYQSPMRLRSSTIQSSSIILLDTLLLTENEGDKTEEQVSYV
METHOD SUMMARY: Functional activity IC50 (5HT2B antagonist)
Where a name gives a salt, the structure may show the parent alone.
Quick reference for pIC50 among some compounds
The quantity pIC50 is defined as the negative base-10 logarithm of the molar concentration.

[
  {
    "COMPOUND": "Fc1cccc(CN2CCC(Nc3ncnc4sc5c(c34)CCCC5)CC2)c1 [Example B3]",
    "SYSTEM NAME": "5HT2B (Homo sapiens, UniProt P41595)",
    "pIC50": 7.00
  },
  {
    "COMPOUND": "CC(C)Cc1cc2c(NC3CCN(C(C)c4cccc(F)c4)CC3)ncnc2s1 (centres unmarked) [Example B14, dihydrochloride]",
    "SYSTEM NAME": "5HT2B (Homo sapiens, UniProt P41595)",
    "pIC50": 5.28
  },
  {
    "COMPOUND": "Fc1cc(F)cc(CN2CCC(Nc3ncnc4sccc34)CC2)c1 [Example B30, dihydrochloride]",
    "SYSTEM NAME": "5HT2B (Homo sapiens, UniProt P41595)",
    "pIC50": 5.80
  },
  {
    "COMPOUND": "c1ccc(CN2CCC(Nc3ncnc4sc5c(c34)CCCC5)CC2)cc1 [Example B1]",
    "SYSTEM NAME": "5HT2B (Homo sapiens, UniProt P41595)",
    "pIC50": 6.96
  }
]

Consider the compound CC(C)Cc1cc2c(NC3CCN(C(C)c4cc(F)cc(F)c4)CC3)ncnc2s1 (centres unmarked) [Example B18, dihydrochloride] and give its measured pIC50. 5.24
